- Test system: HeLa Kyoto
- EXPERIMENT SUMMARY: solubility in G1/S (NP-40 vs SDS abundance) (log2 ratio); higher = more soluble
- CONDITION SET: cell cycle stage: G1/S
Each entry below lists one item and its recorded solubility in G1/S (log2) value.
No unit in the answer, please; the number alone is enough.

Here's what some known entries look like.
Quick check: solubility in G1/S (log2) of MVAMAAGPSGCLVPAFGLRLLLATVLQAVSAFGAEFSSEACRELGFSSNLLCSSCDLLGQFNLLQLDPDCRGCCQEEAQFETKKLYAGAILEVCGUKLGRFPQVQAFVRSDKPKLFRGLQIKYVRGSDPVLKLLDDNGNIAEELSILKWNTDSVEEFLSEKLERI [SEP15] ? 0.305

Any idea what its solubility in G1/S (log2) is? The sequence is MVLESTMVCVDNSEYMRNGDFLPTRLQAQQDAVNIVCHSKTRSNPENNVGLITLANDCEVLTTLTPDTGRILSKLHTVQPKGKITFCTGIRVAHLALKHRQGKNHKMRIIAFVGSPVEDNEKDLVKLAKRLKKEKVNVDIINFGEEEVNTEKLTAFVNTLNGKDGTGSHLVTVPPGPSLADALISSPILAGEGGAMLGLGASDFEFGVDPSADPELALALRVSMEEQRQRQEEEARRAAAASAAEAGIATTGTEDSDDALLKMTISQQEFGRTGLPDLSSMTEEEQIAYAMQMSLQGAEFGQAESADIDASSAMDTSEPAKEEDDYDVMQDPEFLQSVLENLPGVDPNNEAIRNAMGSLASQATKDGKKDKKEEDKK [PSMD4] 0.287

What measured solubility in G1/S (log2) goes with MMAIRELKVCLLGDTGVGKSSIVCRFVQDHFDHNISPTIGASFMTKTVPCGNELHKFLIWDTAGQERFHSLAPMYYRGSAAAVIVYDITKQDSFYTLKKWVKELKEHGPENIVMAIAGNKCDLSDIREVPLKDAKEYAESIGAIVVETSAKNAINIEELFQGISRQIPPLDPHENGNNGTIKVEKPTMQASRRCC [RAB31] ? -0.166

Others:
# query: solubility in G1/S (log2) of entry MDNLSSEEIQQRAHQITDESLESTRRILGLAIESQDAGIKTITMLDEQKEQLNRIEEGLDQINKDMRETEKTLTELNKCCGLCVCPCNRTKNFESGKAYKTTWGDGGENSPCNVVSKQPGPVTNGQLQQPTTGAASGGYIKRITNDAREDEMEENLTQVGSILGNLKDMALNIGNEIDAQNPQIKRITDKADTNRDRIDIANARAKKLIDS [SNAP23] -0.00465

----------
- Test system: HeLa Kyoto
- EXPERIMENT SUMMARY: melting temperature (median over replicates), in situ; higher = more thermally stable
- CONDITION SET: cell cycle stage: G1/S
READOUT TYPE: melting temperature (°C)
Unit °C implied. Number only.

Returns the measured melting temperature for the input sequence. Input: MKDVPGFLQQSQNSGPGQPAVWHRLEELYTKKLWHQLTLQVLDFVQDPCFAQGDGLIKLYENFISEFEHRVNPLSLVEIILHVVRQMTDPNVALTFLEKTREKVKSSDEAVILCKTAIGALKLNIGDLQVTKETIEDVEEMLNNLPGVTSVHSRFYDLSSKYYQTIGNHASYYKDALRFLGCVDIKDLPVSEQQERAFTLGLAGLLGEGVFNFGELLMHPVLESLRNTDRQWLIDTLYAFNSGNVERFQTLKTAWGQQPDLAANEAQLLRKIQLLCLMEMTFTRPANHRQLTFEEIAKSAKITVNEVELLVMKALSVGLVKGSIDEVDKRVHMTWVQPRVLDLQQIKGMKDRLEFWCTDVKSMEMLVEHQAHDILT [PSMD13] 53.2

----------
- Test system: HeLa Kyoto
- EXPERIMENT SUMMARY: thermal stability score vs G1/S (z-score of summed log2 fold changes over temperatures); higher = more thermally stable than in G1/S
- CONDITION SET: cell cycle stage: early G1 (4.5 h after nocodazole release)
// reported thermal stability score for each item listed
Form field (numeric): enter value without unit.

Answered cases to consult:
Look at this sequence and give its reported thermal stability score. MGFNLTFHLSYKFRLLLLLTLCLTVVGWATSNYFVGAIQEIPKAKEFMANFHKTLILGKGKTLTNEASTKKVELDNCPSVSPYLRGQSKLIFKPDLTLEEVQAENPKVSRGRYRPQECKALQRVAILVPHRNREKHLMYLLEHLHPFLQRQQLDYGIYVIHQAEGKKFNRAKLLNVGYLEALKEENWDCFIFHDVDLVPENDFNLYKCEEHPKHLVVGRNSTGYRLRYSGYFGGVTALSREQFFKVNGFSNNYWGWGGEDDDLRLRVELQRMKISRPLPEVGKYTMVFHTRDKGNEVNAERMKLLHQVSRVWRTDGLSSCSYKLVSVEHNPLYINITVDFWFGA [B4GALT4] -0.773

I have this sequence here, `MSASAPAAEGEGTPTQPASEKEPEMPGPREESEEEEDEDDEEEEEEEKEKSLIVEGKREKKKVERLTMQVSSLQREPFTIAQGKGQKLCEIERIHFFLSKKKTDELRNLHKLLYNRPGTVSSLKKNVGQFSGFPFEKGSVQYKKKEEMLKKFRNAMLKSICEVLDLERSGVNSELVKRILNFLMHPKPSGKPLPKSKKTCSKGSKKERNSSGMARKAKRTKCPEILSDESSSDEDEKKNKEESSDDEDKESEEEPPKKTAKREKPKQKATSKSKKSVKSANVKKADSSTTKKNQNSSKKESESEDSSDDEPLIKKLKKPPTDEELKETIKKLLASANLEEVTMKQICKKVYENYPTYDLTERKDFIKTTVKELIS` , and I need its recorded thermal stability score. 7.97

More entries:
For MASRGATRPNGPNTGNKICQFKLVLLGESAVGKSSLVLRFVKGQFHEFQESTIGAAFLTQTVCLDDTTVKFEIWDTAGQERYHSLAPMYYRGAQAAIVVYDITNEESFARAKNWVKELQRQASPNIVIALSGNKADLANKRAVDFQEAQSYADDNSLLFMETSAKTSMNVNEIFMAIAKKLPKNEPQNPGANSARGRGVDLTEPTQPTRNQCCSN [RAB5A] , what is its reported thermal stability score? -1.4

----------
# Lookup of reported solubility change mitosis (log2) keyed by entry
- Test system: HeLa Kyoto
- EXPERIMENT SUMMARY: solubility change mitosis vs G1/S (difference of NP-40 vs SDS log2 ratios) (log2 ratio difference); higher = more soluble in mitosis
API note: the answer field is a bare number with no unit suffix.

Which measured solubility change mitosis (log2) belongs to MSDIGDWFRSIPAITRYWFAATVAVPLVGKLGLISPAYLFLWPEAFLYRFQIWRPITATFYFPVGPGTGFLYLVNLYFLYQYSTRLETGAFDGRPADYLFMLLFNWICIVITGLAMDMQLLMIPLIMSVLYVWAQLNRDMIVSFWFGTRFKACYLPWVILGFNYIIGGSVINELIGNLVGHLYFFLMFRYPMDLGGRNFLSTPQFLYRWLPSRRGGVSGFGVPPASMRRAADQNGGGGRHNWGQGFRLGDQ [DERL1] , tested on HeLa Kyoto? -0.273

Okay, now this sequence:
Provide the documented solubility change mitosis (log2) with HeLa Kyoto as the system for MRRVTLFLNGSPKNGKVVAVYGTLSDLLSVASSKLGIKATSVYNGKGGLIDDIALIRDDDVLFVCEGEPFIDPQTDSKPPEGLLGFHTDWLTLNVGGRYFTTTRSTLVNKEPDSMLAHMFKDKGVWGNKQDHRGAFLIDRSPEYFEPILNYLRHGQLIVNDGINLLGVLEEARFFGIDSLIEHLEVAIKNSQPPEDHSPISRKEFVRFLLATPTKSELRCQGLNFSGADLSRLDLRYINFKMANLSRCNLAHANLCCANLERADLSGSVLDCANLQGVKMLCSNAEGASLKLCNFEDPSGLKANLEGANLKGVDMEGSQMTGINLRVATLKNAKLKNCNLRGATLAGTDLENCDLSGCDLQEANLRGSNVKGAIFEEMLTPLHMSQSVR [KCTD9] -0.2

----------
- Test system: HeLa Kyoto
- EXPERIMENT SUMMARY: solubility in G1/S (NP-40 vs SDS abundance) (log2 ratio); higher = more soluble
- CONDITION SET: cell cycle stage: G1/S
Label rule, in plain words: solubility in G1/S (log2) of -0.2 and up is TRUE, under -0.2 is FALSE.

Solved cases below.
Form field: solubility in G1/S (log2) at least -0.2? Entry: MAARTVIIDHGSGFLKAGTAGWNEPQMVFPNIVNYLPCKENPGPSYARRRVSLGIDICHPDTFSYPIERGRILNWEGVQYLWSFVLENHRREQEVPPVIITETPLREPADRKKMLEILFELLHVPSVLLADQLQMSLYASGLLTGVVVDSGYGLTRVQPFHQGRPLPASGKTLEFAGQDLSAYLLKSLFKEDCDRRCLFQLETVAVTQMNKCYVPQNLGEALDFRERQQSALDESNTYQLPDGSRVELTPMQRVAPEMFFSPQVFEQPGPSIPRAIVESVESCEISLRPLLVSHVMACGGNTLYPGFTKRLFRELMGDHVSSTKATVWEGSNRNFSVWLGASVVAHLSTYQSEWMSREEYGEHMRM [ACTL8] TRUE

Decide: solubility in G1/S (log2) of MALVHKLLRGTYFLRKFSKPTSALYPFLGIRFAEYSSSLQKPVASPGKASSQRKTEGDLQGDHQKEVALDITSSEEKPDVSFDKAIRDEAIYHFRLLKDEIVDHWRGPEGHPLHEVLLEQAKVVWQFRGKEDLDKWTVTSDKTIGGRSEVFLKMGKNNQSALLYGTLSSEAPQDGESTRSGYCAMISRIPRGAFERKMSYDWSQFNTLYLRVRGDGRPWMVNIKEDTDFFQRTNQMYSYFMFTRGGPYWQEVKIPFSKFFFSNRGRIRDVQHELPLDKISSIGFTLADKVDGPFFLEIDFIGVFTDPAHTEEFAYENSPELNPRLFK [NDUFAF1] >= -0.2? TRUE

I'd appreciate it if you could say whether MSAQAQMRALLDQLMGTARDGDETRQRVKFTDDRVCKSHLLDCCPHDILAGTRMDLGECTKIHDLALRADYEIASKERDLFFELDAMDHLESFIAECDRRTELAKKRLAETQEEISAEVSAKAEKVHELNEEIGKLLAKAEQLGAEGNVDESQKILMEVEKVRAKKKEAEEEYRNSMPASSFQQQKLRVCEVCSAYLGLHDNDRRLADHFGGKLHLGFIQIREKLDQLRKTVAEKQEKRNQDRLRRREEREREERLSRRSGSRTRDRRRSRSRDRRRRRSRSTSRERRKLSRSRSRDRHRRHRSRSRSHSRGHRRASRDRSAKYKFSRERASREESWESGRSERGPPDWRLESSNGKMASRRSEEKEAGEI [LUC7L] has solubility in G1/S (log2) at least equal to -0.2. FALSE

I'd appreciate it if you could say whether MAETYDFLFKFLVIGSAGTGKSCLLHQFIENKFKQDSNHTIGVEFGSRVVNVGGKTVKLQIWDTAGQERFRSVTRSYYRGAAGALLVYDITSRETYNSLAAWLTDARTLASPNIVVILCGNKKDLDPEREVTFLEASRFAQENELMFLETSALTGENVEEAFLKCARTILNKIDSGELDPERMGSGIQYGDASLRQLRQPRSAQAVAPQPCGC [RAB4B] has solubility in G1/S (log2) at least equal to -0.2. TRUE

For the next question, use this sequence.
Does solubility in G1/S (log2) meet or surpass -0.2 for MASGVQVADEVCRIFYDMKVRKCSTPEEIKKRKKAVIFCLSADKKCIIVEEGKEILVGDVGVTITDPFKHFVGMLPEKDCRYALYDASFETKESRKEELMFFLWAPELAPLKSKMIYASSKDAIKKKFQGIKHECQANGPEDLNRACIAEKLGGSLIVAFEGCPV [DSTN] ? TRUE

Ref: the supplement of paper PMC5998384
